experiment: folding stability dG unfold from trypsin proteolysis; higher = more stable
Param threshold (0.03 kcal/mol) applies to folding stability dG unfold; output met when value >= threshold, not met when value < threshold.

Examples from the recorded data:
{"SEQ": "SMVQGTVLPPNGQRLTFEFDPAGTAQERAEQVRALLEALLPPDLKIEVERVEPDRPISADEPGTVLARADSA [r9_178_TrMRF]", "GROUP LABEL": "not met"}
{"SEQ": "SAGGETVTTESYQPLPTGPGLSFKNVVTTEEDVNNPGVKYTTTEVTAELVNPEGDESTTTTSTVTAASAGGS [r16_217_JUSTAS]", "GROUP LABEL": "not met"}
{"SEQ": "SAGGSAGGPPPAKVVEVREVTLEDLENLDKLLVVFPDGKVYTSPEALRKWLEEGKPVLVAVFEGSAGGSAGG [r6_827_TrMRF]", "GROUP LABEL": "met"}

Field: next sequence
Ask | Please tell me: is the sequence SAGGSAGGSAGGMKKGQKFKPVKKVKLRFKVKVKVKVGGKEYEFEAEVELEVEFYVLEDSAGGSAGGSAGGS [r10_758_TrROS_Hall] at or over 0.03 kcal/mol in terms of folding stability dG unfold?
Reply | met

###

experiment: folding stability dG unfold from chymotrypsin proteolysis; higher = more stable
Measured folding stability dG unfold values are reported for all entries that follow.
# output: bare number, implied unit kcal/mol

Reference set, count: 5
{"SEQ": "SAGGSNFKPLEAEIYRNPDGKDVVQIMITFPDPNGKPFTVNIWIYPDGKIKISVYYNGKKEEIEIPSAGGSA [r2_182_TrROS]", "READOUT NUMBER": 3.57}
{"SEQ": "SAGGSAGGSAGGGMTVLSFTMPKEEVEKYFEEKGLDATEMTISPGPGDTYSVTVLDPGSSAGGSAGGSAGGS [r10_999_JUSTAS]", "READOUT NUMBER": -0.0653}
{"SEQ": "SAGGSAGGSAGGLEELKKGFKKPVFVAKIEKEVRLLPNGDLIVRYKIEGPDLELELVFSSAGGSAGGSAGGS [r10_160_TrMRF]", "READOUT NUMBER": 3.56}
{"SEQ": "KIKIEPGETVRIKVKVKLPDGEEKEIEIELSLEELEKKLGRPLTPEEILNLIKEEAEKKGFEVEEVEIEKES [r1_338_TrROS_Hall]", "READOUT NUMBER": 1.38}
{"SEQ": "SNYINEPIYVPPSVDPEEVKKKVEERVEEIKKKLGLPPNISVSVTPVALPEGSVTYRVTVTVDGETYNSSSA [r9_776_JUSTAS]", "READOUT NUMBER": 0.488}

Ask | // folding stability dG unfold lookup, key: SAGGSAGGSYKIDKIEVQPPPGGYYQATIEVEQVDPENGNPQRQEQEIPVPANDPKQIKDFLKSAGGSAGGS [r12_691_TrROS]
Reply | 0.379

Ask | // folding stability dG unfold lookup, key: SAGGSAMMTLEEAIEKAAKNIPVGEKKIIEIKLEKGTFTVEIEKIGPKEVKIKILKISKGPEEEEISAGGSA [r15_150_TrMRF]
Reply | 4.68

###

test: folding stability dG unfold (combined trypsin and chymotrypsin); higher = more stable
RESULT TYPE: folding stability dG unfold (kcal/mol)
# output: bare number, implied unit kcal/mol

Reference set, count: 5
{"SEQ": "SAGGSAGPSVTVDVTFHPGEGTVDVTVTTEGEVVYGKGTFLNPSTVLVEVYFPGSGKVATLTLPVTSAGGSA [r15_837_TrMRF]", "READOUT NUMBER": 1.73}
{"SEQ": "SAGGSAGGSAGGLGPDTPYATLSVTLTFTVRLKVRDPVTGKEYEIEYDVTLTFTFTVPASAGGSAGGSAGGS [r10_1116_TrMRF]", "READOUT NUMBER": 5.58}
{"SEQ": "SAGTIAKEIAEKLGLPGLKVKDVKFEPDPDGPIKEIEITVEFPNGRYWKIDIRYDPGNIVIDIEPVPPSAGG [r19_392_TrROS]", "READOUT NUMBER": 2.17}
{"SEQ": "SAGGSAGGSAGGSDTPGNYKKVKITLKRVTLGDNNTPKVETVELEVTVPPNYTLEDVLSSAGGSAGGSAGGS [r4_283_TrMRF]", "READOUT NUMBER": 1.14}
{"SEQ": "SAGGSADTITIFFPGMPPEFAKEILEAILYEQGWKPKSVSTERHPEKGMHTIEVRFPNGRKITIMFSAGGSA [r15_958_TrROS]", "READOUT NUMBER": 2.75}

Next:
Ask | // folding stability dG unfold lookup, key: SAGGSAGGSAGGSGVLNIDEVWEDPESDLYTVVTTGEDEGTRVFVFDKNGKLLAEADLPSAGGSAGGSAGGS [r4_259_TrMRF]
Reply | 0.443
